Recorded values, source the supplement of paper PMC6555819.

# System: PXR homodimer (NR concentration 270 nM)
# assay procedure: PBM binding z-score (relative to random genomic background probes); higher = stronger binding; sequences stand for … in GC…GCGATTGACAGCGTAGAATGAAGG
property name: PBM binding z-score

* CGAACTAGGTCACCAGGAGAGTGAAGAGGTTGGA | -0.0382
* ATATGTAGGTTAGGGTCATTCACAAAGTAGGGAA | 2.17
* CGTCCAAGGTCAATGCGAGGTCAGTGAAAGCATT | 4.68
* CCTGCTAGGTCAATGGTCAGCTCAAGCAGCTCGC | -0.482
* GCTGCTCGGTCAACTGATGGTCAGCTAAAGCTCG | -0.492
* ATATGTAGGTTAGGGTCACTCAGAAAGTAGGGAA | 1.5
* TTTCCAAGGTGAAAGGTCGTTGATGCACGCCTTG | 0.161
* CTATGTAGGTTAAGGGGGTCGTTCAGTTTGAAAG | 6.99
* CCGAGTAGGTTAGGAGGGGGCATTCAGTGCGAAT | 6.27
* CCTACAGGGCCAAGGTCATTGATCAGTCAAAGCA | 1.53
* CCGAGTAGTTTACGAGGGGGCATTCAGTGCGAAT | 4.22
* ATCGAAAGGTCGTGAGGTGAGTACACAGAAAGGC | 0.557
* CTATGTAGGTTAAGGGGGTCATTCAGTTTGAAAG | 11.4
* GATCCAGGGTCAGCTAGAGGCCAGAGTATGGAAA | -0.25
* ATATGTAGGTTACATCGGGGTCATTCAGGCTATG | 10.3
* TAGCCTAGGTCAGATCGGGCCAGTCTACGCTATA | -0.895
* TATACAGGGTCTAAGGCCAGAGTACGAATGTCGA | 0.0324
* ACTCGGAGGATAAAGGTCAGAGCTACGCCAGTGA | 0.221
* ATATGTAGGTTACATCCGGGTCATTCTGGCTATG | 0.712
* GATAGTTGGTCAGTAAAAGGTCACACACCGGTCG | 1.52
* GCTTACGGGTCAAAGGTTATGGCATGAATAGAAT | 0.477
* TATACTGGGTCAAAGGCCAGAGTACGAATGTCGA | 0.331
* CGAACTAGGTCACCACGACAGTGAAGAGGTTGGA | -0.289
* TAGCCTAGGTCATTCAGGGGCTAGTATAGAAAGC | -0.268
* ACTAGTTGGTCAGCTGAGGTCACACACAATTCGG | 2.09
* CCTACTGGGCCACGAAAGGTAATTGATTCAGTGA | -0.335

----------
# Tested on: LXRa homodimer (NR concentration 270 nM)
# assay procedure: PBM binding z-score (relative to random genomic background probes); higher = stronger binding; sequences stand for … in GC…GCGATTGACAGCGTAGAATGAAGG
Rule: PBM binding z-score of 0.7 or more gives true (1); anything lower gives false (0).

• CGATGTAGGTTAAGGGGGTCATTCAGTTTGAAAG = true (1)
• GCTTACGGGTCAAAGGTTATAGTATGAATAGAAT = true (1)
• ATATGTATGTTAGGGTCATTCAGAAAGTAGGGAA = true (1)
• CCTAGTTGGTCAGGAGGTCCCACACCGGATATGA = false (0)
• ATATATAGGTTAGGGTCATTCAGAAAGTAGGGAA = true (1)
• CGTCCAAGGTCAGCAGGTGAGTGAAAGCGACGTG = false (0)
• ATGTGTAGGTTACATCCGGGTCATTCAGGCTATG = true (1)
• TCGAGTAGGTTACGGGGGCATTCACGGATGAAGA = false (0)
• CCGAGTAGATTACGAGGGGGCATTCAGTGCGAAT = true (1)
• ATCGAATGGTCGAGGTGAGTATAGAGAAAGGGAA = false (0)
• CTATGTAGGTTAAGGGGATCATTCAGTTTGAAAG = false (0)
• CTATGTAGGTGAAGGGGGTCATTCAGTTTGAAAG = true (1)
